Study System: HLA-B*3501 (human)
Test: competition with 125I-labelled standard peptide for purified HLA, gel filtration
Metric Name: binding affinity ratio (IC50 of standard peptide / IC50 of test peptide)

EPQNEIPVDL (modifications not checked) [HPV18 E7 peptide … (position 16, 10 amino acids)]
0.0005

Task: Value lookup for binding affinity ratio (IC50 of standard peptide / IC50 of test peptide); key = KPLNPAEKL (modifications not checked) [HPV18 E6 peptide … (position 110, 9 amino acids)]
Result: 0.0001

Task: NPAEKLRHL (modifications not checked) [HPV18 E6 peptide … (position 113, 9 amino acids)] ?
Result: 0.0001

Task: IPHAACHKCI (modifications not checked) [HPV18 E6 peptide … (position 60, 10 amino acids)] ?
Result: 0.0001
